# tgt: T1, human MSLN-FL-his protein (human, UniProt Q13421 296-580)
# T1 construct: made in HEK293E cells, purified on nickel column; also called hMSLN-FL-his; human MSLN full-length protein; not shown: His tag
# testDescription: competitive ELISA; row F8-18.9; also: test concentration or dose not given here
assayEndpoint: competition rate

Exam item: Please list competition rate recorded for the binder S009-F8-12.13 (antibody, human IgG1, kappa, V domains shown, human-murine chimeric antibody, human IgG1/kappa constant regions) VH: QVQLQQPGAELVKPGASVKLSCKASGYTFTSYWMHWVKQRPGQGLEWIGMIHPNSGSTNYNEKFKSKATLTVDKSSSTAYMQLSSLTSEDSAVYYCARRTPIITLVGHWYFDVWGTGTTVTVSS VL: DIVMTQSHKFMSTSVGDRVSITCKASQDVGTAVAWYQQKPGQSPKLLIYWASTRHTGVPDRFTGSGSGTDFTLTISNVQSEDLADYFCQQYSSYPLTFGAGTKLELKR
Marked response: 10.1%
